- protocol: Single dose study: plasma pharmacokinetics of eplerenone, open lactone ring form, spironolactone
- condition info: male, human, plasma, po, 10 mg
- Method: The pharmacokinetics, safety and antialdosterone activity of single 10, 50, 100, 300 and 1000 mg oral doses of eplerenone were evaluated in a single-center, randomized, double-blind, placebo-controlled study. The study employed seven parallel dose groups of eight healthy male humans. The eplerenone capsules administered corresponded to the capsules (or combinations of the capsules) disclosed in Examples 4, 5, 7 and 8 above. The placebo was a conventional capsule containing lactose. […]
readout type: concentration at 16 h (ng/mL)
Report the figure in ng/mL without appending any unit label.

Recall and state the measured concentration at 16 h for COC(=O)C1CC2=CC(=O)CCC2(C)C23OC2CC2(C)C(CC[C@@]24CCC(=O)O4)C13 (stereo partly shown) [eplerenone] .
6

* * *

- protocol: Single dose study: plasma pharmacokinetics of eplerenone, open lactone ring form, spironolactone
- condition info: male, human, plasma, po, 300 mg
- Protocol: The pharmacokinetics, safety and antialdosterone activity of single 10, 50, 100, 300 and 1000 mg oral doses of eplerenone were evaluated in a single-center, randomized, double-blind, placebo-controlled study. The study employed seven parallel dose groups of eight healthy male humans. The eplerenone capsules administered corresponded to the capsules (or combinations of the capsules) disclosed in Examples 4, 5, 7 and 8 above. The placebo was a conventional capsule containing lactose. […]
readout type: concentration at 32 h (ng/mL)
Give the number; ng/mL is assumed, so skip it.

// Input: COC(=O)C1CC2=CC(=O)CCC2(C)C23OC2CC2(C)C(CC[C@@]24CCC(=O)O4)C13 (stereo partly shown) . Output its concentration at 32 h only.
11.3

* * *

- protocol: Single dose study: plasma pharmacokinetics of eplerenone, open lactone ring form, spironolactone
- condition info: male, human, plasma, po, 10 mg
readout type: Cmax (ng/mL)
Return type: number; implicit unit ng/mL.

Identify Cmax associated with the compound COC(=O)C1CC2=CC(=O)CCC2(C)C23OC2CC2(C)C(CC[C@@]24CCC(=O)O4)C13 (stereo partly shown)
191

* * *

- protocol: ADME study of [14C]eplerenone oral solution: plasma, whole blood, saliva pharmacokinetics
- Assay type: in vivo, humans
- condition info: male, human, plasma; 100 mg oral solution of [14C]eplerenone; 3.0 hours after dosing
readout type: concentration at 3 h (ng/mL)
Write the answer as a number in ng/mL, unit excluded.

Supply concentration at 3 h value. Item: COC(=O)C1CC2=CC(=O)CCC2(C)C23OC2CC2(C)C(CC[C@@]24CCC(=O)O4)C13 (stereo partly shown) [eplerenone]
1180

* * *

- protocol: Effect of food study: plasma pharmacokinetics fasted vs high-fat breakfast
- Format: in vivo, humans
- condition info: male, human, plasma, oral, 100 mg, 100 mg eplerenone capsule; High Fat Breakfast; 8.0 hours after dosing
readout type: concentration at 8 h (ng/mL)
Only the number, expressed in ng/mL, is required.

Output concentration at 8 h of COC(=O)C1CC2=CC(=O)CCC2(C)C23OC2CC2(C)C(CC[C@@]24CCC(=O)O4)C13 (stereo partly shown)
673

* * *

- protocol: Effect of food study: plasma pharmacokinetics fasted vs high-fat breakfast
- Type: in vivo, humans
- condition info: male, human, plasma, oral, 100 mg, 100 mg eplerenone capsule; Fasted Conditions; 48.0 hours after dosing
readout type: concentration at 48 h (ng/mL)
# number only, unit ng/mL dropped from output

Check the records and state concentration at 48 h for COC(=O)C1CC2=CC(=O)CCC2(C)C23OC2CC2(C)C(CC[C@@]24CCC(=O)O4)C13 (stereo partly shown) [eplerenone]
0
